- protocol-summary: Pharmacokinetics in rats (IV and oral dosing)
- study-conditions: rat, in vivo, po, 25 mg/kg
Catalogue of half-life values
readout-kind: half-life (h)

• NC[C@H]1CC[C@]2(CC1)OOC1(O2)C2CC3CC(C2)CC1C3 (some centres unmarked) [OZ209] = 1.69
• NC(=O)CNC[C@H]1CC[C@]2(CC1)OOC1(O2)C2CC3CC(C2)CC1C3 (some centres unmarked) [OZ256] = 1.22

* * *

Catalogue of Survival (days) 10 mg/kg SSV po values
- Tested on: ANKA strain of P. berghei
- protocol-summary: Single dose STI in vivo screen in infected mice
- Design: species or system Plasmodium berghei
- study-conditions: single 10 mg/kg po in SSV; untreated 6-7 days
readout-kind: Survival (days) 10 mg/kg SSV po

- C1=C(c2ccccc2)CCC2(C1)OOC1(O2)C2CC3CC(C2)CC1C3 (centres unmarked) [OZ226]: 5.3
- NC(=O)OC1CCC2(CC1)OOC1(O2)C2CC3CC(C2)CC1C3 (centres unmarked) [OZ107]: 6.3
- NC(=O)C(=O)NC[C@H]1CC[C@]2(CC1)OOC1(O2)C2CC3CC(C2)CC1C3 (some centres unmarked) [OZ268]: 13.3

* * *

- Test system: ANKA strain of P. berghei
- protocol-summary: Single dose STI in vivo screen in infected mice
- Design: species or system Plasmodium berghei
- study-conditions: single 10 mg/kg sc in 3% ethanol and 7% Tween 80 on day 1 post-infection; percent reduction in parasitemia on day 3; 10 mg/kg
readout-kind: Activity (%) 10 mg/kg sc

* CC1(C)COC(c2ccc([C@H]3CC[C@]4(CC3)OOC3(O4)C4CC5CC(C4)CC3C5)cc2)=N1 (some centres unmarked) [OZ154] | 59
* NC[C@H]1CC[C@]2(CC1)OOC1(O2)C2CC3CC(C2)CC1C3 (some centres unmarked) [OZ209] | 99.97
* c1ncn(C[C@H]2CC[C@]3(CC2)OOC2(O3)C3CC4CC(C3)CC2C4)n1 (some centres unmarked) [OZ177] | 99.91
* c1ncn(C[C@H]2CC[C@]3(CC2)OOC2(O3)C3CC4CC(C3)CC2C4)n1 (some centres unmarked) [OZ235] | 97
* OC12CC3CC(C1)C1(OOC4(CCC5(CC4)OCCO5)O1)C(C3)C2 (centres unmarked) [OZ153] | 20
* c1cn(C[C@H]2CC[C@]3(CC2)OOC2(O3)C3CC4CC(C3)CC2C4)cn1 (some centres unmarked) [OZ145] | 99.87
* NC[C@H]1CC[C@]2(CC1)OOC1(O2)C2CC3CC(C2)CC1C3 (some centres unmarked) [OZ181] | 100
* OC12CC3CC(C1)C1(OOC4(CCC5(CC4)OCCO5)O1)C(C3)C2 (centres unmarked) [OZ152] | 22

* * *

Catalogue of % reduction of adult worms growth at day 49 after per os application of 400 mg/kg, TWR (%) values
- Tested on: Schistosoma mansoni adult worms (49-day-old)
- protocol-summary: Effect on adult schistosomes (49-day-old) in infected mice
- Type: in vivo
- study-conditions: single 400 mg/kg per os, 49-day-old adults; total worm reduction rate
readout-kind: % reduction of adult worms growth at day 49 after per os application of 400 mg/kg, TWR (%)

• O=C1CC2CC3(CC2C1)OOC1(O3)C2CC3CC(C2)CC1C3 (stereo not drawn) = 14%
• CC(C)(C)C1CCC2(CC1)OOC1(O2)C2CC3CC(C2)CC1C3 (stereo not drawn) = 0/0%
• O=[N+]([O-])c1cccc(C2(c3cccc([N+](=O)[O-])c3)OOC3(O2)C2CC4CC(C2)CC3C4)c1 (stereo not drawn) = 8%
